- Test system: HCV replicon, genotype-1a variant with glutamine 30 changed to glutamate in the NS5A protein
- ASSAY NOTES: microbe, parasite or virus in culture
- Type: cell-based, HCV genotype 1a
- MEASUREMENT PARAMETERS: HCV replicon genotype 1a Q30E (Q→E) variant; test compound titrated with an NS5A-targeting compound (BMS-790052 fixed at 200 nM); ranking of synergist activity
Known Fold-Synergistic 1a (Q30E) of a selection of compounds

Give the reported value of Fold-Synergistic 1a (Q30E) for this record: COCCOC(=O)N1C[C@H](F)C[C@H]1C(=O)N[C@H](c1nc(-c2ccc(-c3ccc(-c4c[nH]c([C@@H](NC(=O)[C@@H]5C[C@@H](F)CN5C(=O)OCCOC)C(C)(C)C)n4)cc3)cc2)c[nH]1)C(C)(C)C [Compound W-110]
>100 fold

Okay, now this compound:
Given the compound CC1([C@H](NC(=O)[C@@]2(C)CC(F)(F)CO2)c2nc(-c3ccc(-c4ccc(-c5c[nH]c([C@@H](NC(=O)[C@@]6(C)CC(F)(F)CO6)C6(C)CC6)n5)cc4)cc3)c[nH]2)CC1 [Compound Y-83] , write its reported Fold-Synergistic 1a (Q30E).
>100 fold

* * *

Catalogue of molecules with associated Fold-Synergistic 1a (Q30E)
- Test system: HCV replicon, genotype-1a variant with glutamine 30 changed to glutamate in the NS5A protein
- ASSAY NOTES: microbe, parasite or virus in culture
- Format: cell-based, HCV genotype 1a
- MEASUREMENT PARAMETERS: HCV replicon genotype 1a Q30E (Q→E) variant; test compound titrated with an NS5A-targeting compound (BMS-790052 fixed at 200 nM); ranking of synergist activity

Tell me measured Fold-Synergistic 1a (Q30E) for CC(C)(C)[C@H](NC(=O)[C@@]1(C)C[C@H]2CC(F)(F)C[C@H]2C1)c1nc(-c2ccc(-c3ccc(-c4c[nH]c([C@@H](NC(=O)[C@@]5(C)C[C@H]6CC(F)(F)C[C@H]6C5)C(C)(C)C)n4)cc3)cc2)c[nH]1 [Compound P-152] please.
>100 fold

Report Fold-Synergistic 1a (Q30E), nothing else, for this molecule: CC(C)(C)OC(=O)N1C[C@H](O)C[C@H]1C(=O)N[C@H](c1nc(-c2ccc(-c3ccc(-c4c[nH]c([C@@H](NC(=O)[C@@H]5C[C@@H](O)CN5C(=O)OC(C)(C)C)C5(C)CC5)n4)cc3)cc2)c[nH]1)C1(C)CC1 [Compound W-95]
>100 fold

Others:
Dear colleague, please send me the reported Fold-Synergistic 1a (Q30E) for O=C(CCn1ccc2ccccc21)N1CCC[C@H]1c1ncc(-c2ccc(-c3ccc(-c4cnc([C@@H]5CCCN5C(=O)CCn5ccc6ccccc65)[nH]4)cc3)cc2)[nH]1 [Compound S-151] when you can.
>10 fold

Fill in reported Fold-Synergistic 1a (Q30E) for this entry: CC(C)(C)[C@H](NC(=O)C1CCCCS1)c1nc(-c2ccc(-c3ccc(-c4c[nH]c([C@@H](NC(=O)C5CCCCS5)C(C)(C)C)n4)cc3)cc2)c[nH]1 (stereo partly drawn) [Compound P-173]
>100 fold

* * *

- Test system: HCV replicon, genotype-1a variant with glutamine 30 changed to glutamate in the NS5A protein
- ASSAY NOTES: microbe, parasite or virus in culture
- Format: cell-based, HCV genotype 1a
- MEASUREMENT PARAMETERS: HCV replicon genotype 1a Q30E (Q→E) variant; test compound titrated with an NS5A-targeting compound (BMS-790052 fixed at 200 nM); ranking of synergist activity
Measured Fold-Synergistic 1a (Q30E), listed per entry.

Annotate the compound CC(C)(C)[C@H](NC(=O)C1CCC(F)(F)C1)c1nc(-c2ccc(-c3ccc(-c4c[nH]c([C@@H](NC(=O)C5CCC(F)(F)C5)C(C)(C)C)n4)cc3)cc2)c[nH]1 (some centres unmarked) [Compound N-111A] with its measured Fold-Synergistic 1a (Q30E).
>100 fold

Supply recorded Fold-Synergistic 1a (Q30E) for CC(C)N(C(=O)C(=O)N[C@H](c1nc(-c2ccc(-c3ccc(-c4c[nH]c([C@@H](NC(=O)C(=O)N(C(C)C)C5CC5)C5(C)CC5)n4)cc3)cc2)c[nH]1)C1(C)CC1)C1CC1 here.
>100 fold

Tell me measured Fold-Synergistic 1a (Q30E) for CC(C)(C)NC(C)(C)C(=O)N[C@H](c1nc(-c2ccc(-c3ccc(-c4c[nH]c([C@@H](NC(=O)C(C)(C)NC(C)(C)C)C(C)(C)C)n4)cc3)cc2)c[nH]1)C(C)(C)C please.
>100 fold

***
Read the entry CC(C)C(c1ncc(-c2ccc(-c3ccc(-c4cnc(C(C(C)C)N5CCCCC5=O)[nH]4)cc3)cc2)[nH]1)N1CCCCC1=O (centres unmarked) and write its reported Fold-Synergistic 1a (Q30E).
>10 fold

Specify measured Fold-Synergistic 1a (Q30E) for CC(C)[C@H](NC(=O)[C@@]1(C)CCC(F)(F)CO1)c1nc(-c2ccc(-c3ccc(-c4c[nH]c([C@@H](NC(=O)[C@@]5(C)CCC(F)(F)CO5)C(C)C)n4)cc3)cc2)c[nH]1 .
>100 fold
